All figures here come from PubChem BioAssay AID2060489.

- Test system: 922993-354-T-J3-PDC complex spheroids, viability;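 further: spheroids exposed to compounds for seven days; 100% = DMSO vehicle control viability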
- experiment.summary: Anticancer human tumor 922993-354-T-J3-PDC patient-derived endometrial carcinoma cell line growth inhibition [GQUAD]
- condition.summary: second compound 0.0316 µM; first compound 0.0316 µM; hits give low values
- From the text: DNA G-quadruplex Stabilizer Agents in Combinations in Complex Spheroids A high-throughput screen of multi-cell type tumor spheroids was designed to identify active combinations of DNA G-quadruplex stabilizer agents and targeted small molecules. […] Compounds. […] If the clinical Cmax for an agent had not been determined, the highest concentration tested was 10 microM. […]
viability, T/C reference
Your answer should be a plain number; it is taken to be in %.

Before answering, review these 2 worked examples.
[
  {
    "molecule": "C=CCn1c(=O)c2cnc(Nc3ccc(N4CCN(C)CC4)cc3)nc2n1-c1cccc(C(C)(C)O)n1 + Cc1cnc(CNC(=O)c2c(=O)c3ccc(N4CCCN(C)CC4)nc3n3c2sc2ccccc23)cn1",
    "experimental.system": "922993-354-T-J3-PDC complex spheroids, viability",
    "unit.abbreviation": "%",
    "test.value": 92.1
  },
  {
    "molecule": "C=CC(=O)N1CCN(c2nc(=O)n(-c3c(C)ccnc3C(C)C)c3nc(-c4c(O)cccc4F)c(F)cc23)C(C)C1 (stereo not given) + CN(C)c1ccc(Nc2c3ccc(NC(=O)CCN4CCCC4)cc3nc3cc(NC(=O)CCN4CCCC4)ccc23)cc1",
    "experimental.system": "922993-354-T-J3-PDC complex spheroids, viability",
    "unit.abbreviation": "%",
    "test.value": 96.9
  }
]

Consider C=CCn1c(=O)c2cnc(Nc3ccc(N4CCN(C)CC4)cc3)nc2n1-c1cccc(C(C)(C)O)n1 + Cc1[nH]c2ccc(F)cc2c1-c1nc2c3cccnc3c3ncccc3c2[nH]1 . Its measured viability, T/C is 119

The recorded viability, T/C for C#Cc1c(F)ccc2cc(O)cc(-c3ncc4c(N5CC6CCC(C5)N6)nc(OCC56CCCN5CC(F)C6)nc4c3F)c12 (stereo not given) + Cc1[nH]c2ccc(F)cc2c1-c1nc2c3cccnc3c3ncccc3c2[nH]1 is 112

Cc1cccc(N(C)C(=O)C2C(O)CCN2c2nc(C)cc(C(F)(F)F)c2C#N)c1 (stereo not given) + CN(C)c1ccc(Nc2c3ccc(NC(=O)CCN4CCCC4)cc3nc3cc(NC(=O)CCN4CCCC4)ccc23)cc1 has a reported viability, T/C of 80.8

Briefly, viability, T/C measured for COc1cc(C2c3cc4c(cc3C(OC3OC5COC(C)OC5C(O)C3O)C3COC(=O)C23)OCO4)cc(OC)c1O (stereo not given) + Cc1cnc(CNC(=O)c2c(=O)c3ccc(N4CCCN(C)CC4)nc3n3c2sc2ccccc23)cn1 : 82.3

response.value for COc1ncnc(C2CC2)c1-c1ncc2cnn(Cc3ccc(-c4nc(C(F)(F)F)cn4C(C)C)cc3)c2n1 + Cc1cnc(CNC(=O)c2c(=O)c3ccc(N4CCCN(C)CC4)nc3n3c2sc2ccccc23)cn1 (field: viability, T/C) = 98.1

Reported viability, T/C ( C#Cc1c(F)ccc2cc(O)cc(-c3ncc4c(N5CC6CCC(C5)N6)nc(OCC56CCCN5CC(F)C6)nc4c3F)c12 (stereo not given) + CN(C)c1ccc(Nc2c3ccc(NC(=O)CCN4CCCC4)cc3nc3cc(NC(=O)CCN4CCCC4)ccc23)cc1 ) = 93.8

response.value for O=c1[nH]cc(F)c(=O)[nH]1 + Cc1[nH]c2ccc(F)cc2c1-c1nc2c3cccnc3c3ncccc3c2[nH]1 (field: viability, T/C) = 85

Query CC1COCCN1c1cc(-c2ccnn2C)c2ccnc(-c3ccn[nH]3)c2n1 (stereo not given) + CN(C)c1ccc(Nc2c3ccc(NC(=O)CCN4CCCC4)cc3nc3cc(NC(=O)CCN4CCCC4)ccc23)cc1 yields viability, T/C of 98.4

Sure, the documented viability, T/C for O=C(NO)c1cnc(N2CCN(S(=O)(=O)c3ccc4ccccc4c3)CC2)nc1 + Cc1cnc(CNC(=O)c2c(=O)c3ccc(N4CCCN(C)CC4)nc3n3c2sc2ccccc23)cn1 is 80.3

Value of measured viability, T/C for the entry O=C(NO)c1cnc(N2CCN(S(=O)(=O)c3ccc4ccccc4c3)CC2)nc1 + Cc1[nH]c2ccc(F)cc2c1-c1nc2c3cccnc3c3ncccc3c2[nH]1 : 116

response.value for CC[C@@]1(O)C(=O)OCc2c1cc1n(c2=O)Cc2cc3c(CN(C)C)c(O)ccc3nc2-1 + CN(C)c1ccc(Nc2c3ccc(NC(=O)CCN4CCCC4)cc3nc3cc(NC(=O)CCN4CCCC4)ccc23)cc1 (field: viability, T/C) = 91.9

The recorded viability, T/C for entry CC1COCCN1c1cc(-c2ccnn2C)c2ccnc(-c3ccn[nH]3)c2n1 (stereo not given) + Cc1cnc(CNC(=O)c2c(=O)c3ccc(N4CCCN(C)CC4)nc3n3c2sc2ccccc23)cn1 equals 49.1

// viability, T/C lookup, molecule = CCCS(=O)(=O)Nc1ccc(F)c(C(=O)c2c[nH]c3ncc(-c4ccc(Cl)cc4)cc23)c1F + CN(C)c1ccc(Nc2c3ccc(NC(=O)CCN4CCCC4)cc3nc3cc(NC(=O)CCN4CCCC4)ccc23)cc1 , result: 91.6

Quick note, viability, T/C for COc1cc(C2c3cc4c(cc3C(OC3OC5COC(C)OC5C(O)C3O)C3COC(=O)C23)OCO4)cc(OC)c1O (stereo not given) + CN(C)c1ccc(Nc2c3ccc(NC(=O)CCN4CCCC4)cc3nc3cc(NC(=O)CCN4CCCC4)ccc23)cc1 landed at 116

Per the record, CC(=O)O[C@H]1C(=O)[C@@]2(C)[C@H]([C@H](OC(=O)c3ccccc3)[C@]3(O)C[C@H](OC(=O)[C@H](O)[C@@H](NC(=O)c4ccccc4)c4ccccc4)C(C)=C1C3(C)C)[C@]1(OC(C)=O)CO[C@@H]1C[C@@H]2O + CN(C)c1ccc(Nc2c3ccc(NC(=O)CCN4CCCC4)cc3nc3cc(NC(=O)CCN4CCCC4)ccc23)cc1 has viability, T/C of 86.5

Consider COc1ccc([C@@H](O)c2cc(-c3ncnc4cc(N5CCOCC5)ccc34)c(F)cc2Cl)nn1 + Cc1[nH]c2ccc(F)cc2c1-c1nc2c3cccnc3c3ncccc3c2[nH]1 . Its measured viability, T/C is 107

Sample Cn1ncnc1[C@H]1c2n[nH]c(=O)c3cc(F)cc(c23)N[C@@H]1c1ccc(F)cc1 + CN(C)c1ccc(Nc2c3ccc(NC(=O)CCN4CCCC4)cc3nc3cc(NC(=O)CCN4CCCC4)ccc23)cc1 ; viability, T/C observed: 79.6

Looking up CC[C@@]1(O)C(=O)OCc2c1cc1n(c2=O)Cc2cc3c(CN(C)C)c(O)ccc3nc2-1 + Cc1cnc(CNC(=O)c2c(=O)c3ccc(N4CCCN(C)CC4)nc3n3c2sc2ccccc23)cn1 , I found its viability, T/C recorded as 86.9
